# protocol: Mouse pharmacokinetics, i.p. injection
# condition: in vivo, ip, female ICR (CD-1) mice, single 4 mg/kg i.p., plasma, LC-MS/MS, noncompartmental from mean profile, n = 3/time point
Starred links: 1 amine or outer side, 2 acyl side, 3 side chain; linkers in the order of their positions; H or OH if unused. Positions of bridges follow the written chain, without caps; N, C: chain ends. Non-standard residues stand in square brackets, D forms with d. Residues, ends and D or L forms follow the SMILES beside them. *: point of attachment. Orn(4R-OH,5R-OCH2CH2NMe3+) = C[N+](C)(C)CCO[C@@H](N[*:3])[C@H](O)C[C@H](N[*:1])C(=O)[*:2]; pTerphenylCO(4''-OnC5H11) = CCCCCOc1ccc(-c2ccc(-c3ccc(C(=O)*)cc3)cc2)cc1; hTyr(3S-OH,4S-OH) = N[C@H](C(=O)O)[C@H](O)[C@@H](O)c1ccc(O)cc1; Pro(3S-OH,4S-Me) = C[C@H]1CN[C@H](C(=O)O)[C@H]1O; Hyp = O=C(O)[C@@H]1C[C@@H](O)CN1
recorded.metric: half-life (min)

# compound, reported
measured = [
    ("CCCCCOc1ccc(-c2ccc(-c3ccc(C(=O)N[C@H]4C[C@@H](O)[C@@H](OCC[N+](C)(C)C)NC(=O)[C@@H]5[C@@H](O)[C@@H](C)CN5C(=O)[C@H]([C@@H](C)O)NC(=O)[C@H]([C@H](O)[C@@H](O)c5ccc(O)cc5)NC(=O)[C@@H]5C[C@@H](O)CN5C(=O)[C@H]([C@@H](C)O)NC4=O)cc3)cc2)cc1 [CD101] ({pTerphenylCO(4''-OnC5H11)}-[Orn(4R-OH,5R-OCH2CH2NMe3+)]T[Hyp][hTyr(3S-OH,4S-OH)]T[Pro(3S-OH,4S-Me)]; lactam 1-C)", 2670),
]

====

# protocol: Rat pharmacokinetics, i.v. bolus
# Format: in vivo, Sprague-Dawley rats
# condition: rat, in vivo, iv, rat, intravenous; one value for the species as given in the abstract (doses 5, 15, 45 mg/kg, both sexes in Table 1); read-out: clearance
Starred links: 1 amine or outer side, 2 acyl side, 3 side chain; linkers in the order of their positions; H or OH if unused. Positions of bridges follow the written chain, without caps; N, C: chain ends. Non-standard residues stand in square brackets, D forms with d. Residues, ends and D or L forms follow the SMILES beside them. *: point of attachment. Orn(4R-OH,5R-OCH2CH2NMe3+) = C[N+](C)(C)CCO[C@@H](N[*:3])[C@H](O)C[C@H](N[*:1])C(=O)[*:2]; pTerphenylCO(4''-OnC5H11) = CCCCCOc1ccc(-c2ccc(-c3ccc(C(=O)*)cc3)cc2)cc1; hTyr(3S-OH,4S-OH) = N[C@H](C(=O)O)[C@H](O)[C@@H](O)c1ccc(O)cc1; Pro(3S-OH,4S-Me) = C[C@H]1CN[C@H](C(=O)O)[C@H]1O; Hyp = O=C(O)[C@@H]1C[C@@H](O)CN1

# compound, unit.name, clearance
rows = [
    ("CCCCCOc1ccc(-c2ccc(-c3ccc(C(=O)N[C@H]4C[C@@H](O)[C@@H](OCC[N+](C)(C)C)NC(=O)[C@@H]5[C@@H](O)[C@@H](C)CN5C(=O)[C@H]([C@@H](C)O)NC(=O)[C@H]([C@H](O)[C@@H](O)c5ccc(O)cc5)NC(=O)[C@@H]5C[C@@H](O)CN5C(=O)[C@H]([C@@H](C)O)NC4=O)cc3)cc2)cc1 [CD101] ({pTerphenylCO(4''-OnC5H11)}-[Orn(4R-OH,5R-OCH2CH2NMe3+)]T[Hyp][hTyr(3S-OH,4S-OH)]T[Pro(3S-OH,4S-Me)]; lactam 1-C)", "mL/min/kg", 0.47),
]

====

# protocol: Rat pharmacokinetics, i.v. bolus
# Type: in vivo, Sprague-Dawley rats
# condition: rat, in vivo, iv, 5 mg/kg, female Sprague-Dawley rats, single 5 mg/kg slow i.v. bolus, plasma, LC-MS/MS, noncompartmental, n = 3 to 5/dose
Starred links: 1 amine or outer side, 2 acyl side, 3 side chain; linkers in the order of their positions; H or OH if unused. Positions of bridges follow the written chain, without caps; N, C: chain ends. Non-standard residues stand in square brackets, D forms with d. Residues, ends and D or L forms follow the SMILES beside them. *: point of attachment. Orn(4R-OH,5R-OCH2CH2NMe3+) = C[N+](C)(C)CCO[C@@H](N[*:3])[C@H](O)C[C@H](N[*:1])C(=O)[*:2]; pTerphenylCO(4''-OnC5H11) = CCCCCOc1ccc(-c2ccc(-c3ccc(C(=O)*)cc3)cc2)cc1; hTyr(3S-OH,4S-OH) = N[C@H](C(=O)O)[C@H](O)[C@@H](O)c1ccc(O)cc1; Pro(3S-OH,4S-Me) = C[C@H]1CN[C@H](C(=O)O)[C@H]1O; Hyp = O=C(O)[C@@H]1C[C@@H](O)CN1

# compound, AUC(0-inf)
rows = [
    ("CCCCCOc1ccc(-c2ccc(-c3ccc(C(=O)N[C@H]4C[C@@H](O)[C@@H](OCC[N+](C)(C)C)NC(=O)[C@@H]5[C@@H](O)[C@@H](C)CN5C(=O)[C@H]([C@@H](C)O)NC(=O)[C@H]([C@H](O)[C@@H](O)c5ccc(O)cc5)NC(=O)[C@@H]5C[C@@H](O)CN5C(=O)[C@H]([C@@H](C)O)NC4=O)cc3)cc2)cc1 [CD101] ({pTerphenylCO(4''-OnC5H11)}-[Orn(4R-OH,5R-OCH2CH2NMe3+)]T[Hyp][hTyr(3S-OH,4S-OH)]T[Pro(3S-OH,4S-Me)]; lactam 1-C)", "188 µg·h/mL"),
]

====

# protocol: Rat pharmacokinetics, i.v. bolus
# Format: in vivo, Sprague-Dawley rats
# condition: rat, in vivo, iv, 5 mg/kg, male Sprague-Dawley rats, single 5 mg/kg slow i.v. bolus, plasma, LC-MS/MS, noncompartmental, n = 3 to 5/dose; read-out: Vss (volume of distribution at steady state)
Starred links: 1 amine or outer side, 2 acyl side, 3 side chain; linkers in the order of their positions; H or OH if unused. Positions of bridges follow the written chain, without caps; N, C: chain ends. Non-standard residues stand in square brackets, D forms with d. Residues, ends and D or L forms follow the SMILES beside them. *: point of attachment. Orn(4R-OH,5R-OCH2CH2NMe3+) = C[N+](C)(C)CCO[C@@H](N[*:3])[C@H](O)C[C@H](N[*:1])C(=O)[*:2]; pTerphenylCO(4''-OnC5H11) = CCCCCOc1ccc(-c2ccc(-c3ccc(C(=O)*)cc3)cc2)cc1; hTyr(3S-OH,4S-OH) = N[C@H](C(=O)O)[C@H](O)[C@@H](O)c1ccc(O)cc1; Pro(3S-OH,4S-Me) = C[C@H]1CN[C@H](C(=O)O)[C@H]1O; Hyp = O=C(O)[C@@H]1C[C@@H](O)CN1

# molecule, Vd
data = [
    ("CCCCCOc1ccc(-c2ccc(-c3ccc(C(=O)N[C@H]4C[C@@H](O)[C@@H](OCC[N+](C)(C)C)NC(=O)[C@@H]5[C@@H](O)[C@@H](C)CN5C(=O)[C@H]([C@@H](C)O)NC(=O)[C@H]([C@H](O)[C@@H](O)c5ccc(O)cc5)NC(=O)[C@@H]5C[C@@H](O)CN5C(=O)[C@H]([C@@H](C)O)NC4=O)cc3)cc2)cc1 [CD101] ({pTerphenylCO(4''-OnC5H11)}-[Orn(4R-OH,5R-OCH2CH2NMe3+)]T[Hyp][hTyr(3S-OH,4S-OH)]T[Pro(3S-OH,4S-Me)]; lactam 1-C)", "1.16 L/kg"),
]

====

# protocol: Rat pharmacokinetics, i.v. bolus
# Assay type: in vivo, Sprague-Dawley rats
# condition: rat, in vivo, iv, 5 mg/kg, male Sprague-Dawley rats, single 5 mg/kg slow i.v. bolus, plasma, LC-MS/MS, noncompartmental, n = 3 to 5/dose
Starred links: 1 amine or outer side, 2 acyl side, 3 side chain; linkers in the order of their positions; H or OH if unused. Positions of bridges follow the written chain, without caps; N, C: chain ends. Non-standard residues stand in square brackets, D forms with d. Residues, ends and D or L forms follow the SMILES beside them. *: point of attachment. Orn(4R-OH,5R-OCH2CH2NMe3+) = C[N+](C)(C)CCO[C@@H](N[*:3])[C@H](O)C[C@H](N[*:1])C(=O)[*:2]; pTerphenylCO(4''-OnC5H11) = CCCCCOc1ccc(-c2ccc(-c3ccc(C(=O)*)cc3)cc2)cc1; hTyr(3S-OH,4S-OH) = N[C@H](C(=O)O)[C@H](O)[C@@H](O)c1ccc(O)cc1; Pro(3S-OH,4S-Me) = C[C@H]1CN[C@H](C(=O)O)[C@H]1O; Hyp = O=C(O)[C@@H]1C[C@@H](O)CN1

# compound, AUC(0-t), µg·h/mL
records = [
    ("CCCCCOc1ccc(-c2ccc(-c3ccc(C(=O)N[C@H]4C[C@@H](O)[C@@H](OCC[N+](C)(C)C)NC(=O)[C@@H]5[C@@H](O)[C@@H](C)CN5C(=O)[C@H]([C@@H](C)O)NC(=O)[C@H]([C@H](O)[C@@H](O)c5ccc(O)cc5)NC(=O)[C@@H]5C[C@@H](O)CN5C(=O)[C@H]([C@@H](C)O)NC4=O)cc3)cc2)cc1 [CD101] ({pTerphenylCO(4''-OnC5H11)}-[Orn(4R-OH,5R-OCH2CH2NMe3+)]T[Hyp][hTyr(3S-OH,4S-OH)]T[Pro(3S-OH,4S-Me)]; lactam 1-C)", 180),
]
